biological target: TLR9 (Homo sapiens); construct: endogenous in cells; host or cells: freshly isolated human PBMC from donor buffy coats; test: Human PBMC, IFN-α readout using CpG ODN 2395 (TLR9 antagonism); assay type: cell-based; details: in vitro testing as described in Example 63; read-out: TLR9 IC50, Experimental
Sequence (Q9NR96 26-1032): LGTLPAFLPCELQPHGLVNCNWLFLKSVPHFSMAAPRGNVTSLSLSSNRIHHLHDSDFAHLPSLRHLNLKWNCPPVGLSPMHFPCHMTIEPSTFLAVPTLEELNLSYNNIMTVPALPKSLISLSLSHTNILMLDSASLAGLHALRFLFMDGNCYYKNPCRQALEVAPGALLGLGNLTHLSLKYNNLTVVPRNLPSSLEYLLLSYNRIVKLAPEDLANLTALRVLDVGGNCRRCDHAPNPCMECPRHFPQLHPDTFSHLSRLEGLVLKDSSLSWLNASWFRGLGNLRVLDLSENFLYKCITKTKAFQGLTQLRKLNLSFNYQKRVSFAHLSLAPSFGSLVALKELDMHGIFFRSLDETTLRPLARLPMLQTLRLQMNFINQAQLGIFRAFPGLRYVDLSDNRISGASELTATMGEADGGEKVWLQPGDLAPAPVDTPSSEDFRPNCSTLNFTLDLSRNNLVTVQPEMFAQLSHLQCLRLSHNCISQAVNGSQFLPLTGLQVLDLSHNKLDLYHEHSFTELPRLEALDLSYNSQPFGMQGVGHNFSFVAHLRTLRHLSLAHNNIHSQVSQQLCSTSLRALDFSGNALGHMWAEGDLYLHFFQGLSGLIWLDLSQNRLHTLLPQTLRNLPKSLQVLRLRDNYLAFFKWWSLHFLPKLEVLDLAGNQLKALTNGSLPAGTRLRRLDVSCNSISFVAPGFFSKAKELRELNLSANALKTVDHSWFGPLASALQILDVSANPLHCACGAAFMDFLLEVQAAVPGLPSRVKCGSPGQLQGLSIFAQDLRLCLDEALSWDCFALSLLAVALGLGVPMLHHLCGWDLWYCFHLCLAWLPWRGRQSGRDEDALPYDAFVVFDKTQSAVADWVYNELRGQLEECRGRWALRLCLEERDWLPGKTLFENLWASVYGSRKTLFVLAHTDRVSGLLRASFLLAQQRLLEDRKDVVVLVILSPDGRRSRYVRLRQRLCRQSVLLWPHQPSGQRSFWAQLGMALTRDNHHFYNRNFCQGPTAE
Readings of IC50 for the listed compounds
OUTCOME MEASURE: IC50 (nM)

- COMPOUND: "CN1CCN(c2cc(NCCN3CCOCC3)c3cc(-c4ccccc4)ccc3n2)CC1"
  TARGET UNDER TEST: "TLR9 (Homo sapiens)"
  OUTCOME MEASURE: "IC50"
  NUMERIC VALUE: 200
- COMPOUND: "CN1CCN(c2ccc3nc(-c4ccccc4)nc(NCCN4CCOCC4)c3c2)CC1 [Compound 8 (Example 72)]"
  TARGET UNDER TEST: "TLR9 (Homo sapiens)"
  OUTCOME MEASURE: "IC50"
  NUMERIC VALUE: 78
- COMPOUND: "CN1CCN(c2ccc(-c3cc(NCCN4CCOCC4)c4ncccc4n3)cc2)CC1 [6 (BIV)]"
  TARGET UNDER TEST: "TLR9 (Homo sapiens)"
  OUTCOME MEASURE: "IC50"
  NUMERIC VALUE: 44
- COMPOUND: "CN1CCN(c2ccc3nc(-c4ccccc4)cc(NCCN4CCOCC4)c3c2)CC1"
  TARGET UNDER TEST: "TLR9 (Homo sapiens)"
  OUTCOME MEASURE: "IC50"
  NUMERIC VALUE: 72
- COMPOUND: "CN1CCN(c2ccc(-c3cc(NCCN4CCOCC4)c4ncccc4n3)cc2)CC1 [6 (CaI)]"
  TARGET UNDER TEST: "TLR9 (Homo sapiens)"
  OUTCOME MEASURE: "IC50"
  NUMERIC VALUE: 250

###

Molecular target: TLR8 (Homo sapiens, UniProt Q9NR97)
Construct: endogenous in cells; host or cells: freshly isolated human PBMC from donor buffy coats
Sequence (Q9NR97 27-1041): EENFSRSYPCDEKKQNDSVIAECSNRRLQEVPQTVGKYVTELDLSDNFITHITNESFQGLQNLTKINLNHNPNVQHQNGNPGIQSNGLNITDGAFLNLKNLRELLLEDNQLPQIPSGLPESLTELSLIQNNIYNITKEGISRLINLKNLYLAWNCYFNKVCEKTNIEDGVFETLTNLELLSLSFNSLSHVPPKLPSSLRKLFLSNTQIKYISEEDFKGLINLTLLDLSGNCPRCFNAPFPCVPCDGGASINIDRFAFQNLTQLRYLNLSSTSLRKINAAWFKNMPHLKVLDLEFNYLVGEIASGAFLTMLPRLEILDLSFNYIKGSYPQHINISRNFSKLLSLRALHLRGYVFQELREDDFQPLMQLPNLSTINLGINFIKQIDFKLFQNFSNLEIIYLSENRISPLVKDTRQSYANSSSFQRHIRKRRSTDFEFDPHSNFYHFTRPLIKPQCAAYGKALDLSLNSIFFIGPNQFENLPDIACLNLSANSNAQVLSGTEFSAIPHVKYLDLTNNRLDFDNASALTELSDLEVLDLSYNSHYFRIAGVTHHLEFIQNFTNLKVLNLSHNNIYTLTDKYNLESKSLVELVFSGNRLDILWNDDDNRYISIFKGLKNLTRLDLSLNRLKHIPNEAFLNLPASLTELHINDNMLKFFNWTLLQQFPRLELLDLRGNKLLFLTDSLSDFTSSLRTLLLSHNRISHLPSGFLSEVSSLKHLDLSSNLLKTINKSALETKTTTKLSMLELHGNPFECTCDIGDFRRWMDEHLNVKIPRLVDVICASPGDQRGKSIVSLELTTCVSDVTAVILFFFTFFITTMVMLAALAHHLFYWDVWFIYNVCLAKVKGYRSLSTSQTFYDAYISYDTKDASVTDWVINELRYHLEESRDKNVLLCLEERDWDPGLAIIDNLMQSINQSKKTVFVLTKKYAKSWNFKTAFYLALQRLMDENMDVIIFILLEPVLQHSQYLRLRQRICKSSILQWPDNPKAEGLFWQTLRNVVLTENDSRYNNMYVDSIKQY
Assay: Human PBMC, TNF-α release using ORN R-1362+DOTAP (TLR8 antagonism)
Format: cell-based
Details: in vitro testing as described in Example 63; read-out: TLR8 IC50, Experimental
OUTCOME MEASURE: log10(IC50) (log10 of the value in nM)

- COMPOUND: "CN1CCN(c2cc(NCCN3CCOCC3)c3cc(-c4ccccc4)ccc3n2)CC1"
  log10(IC50): 2.78
- COMPOUND: "CN1CCN(c2ccc(-c3cc(NCCN4CCOCC4)c4ncccc4n3)cc2)CC1 [6 (BIV)]"
  log10(IC50): 2.00
- COMPOUND: "CN1CCN(c2ccc(-c3cc(NCCN4CCOCC4)c4ncccc4n3)cc2)CC1 [6 (CaI)]"
  log10(IC50): 2.15
- COMPOUND: "CN1CCN(c2ccc3nc(-c4ccccc4)cc(NCCN4CCOCC4)c3c2)CC1"
  log10(IC50): 1.45
- COMPOUND: "CN1CCN(c2ccc3nc(-c4ccccc4)nc(NCCN4CCOCC4)c3c2)CC1 [Compound 8 (Example 72)]"
  log10(IC50): 1.26

###

biological target: TLR8 (Homo sapiens); construct: endogenous in cells; host or cells: freshly isolated human PBMC from donor buffy coats; test: Human PBMC, TNF-α release using ORN R-1362+DOTAP (TLR8 antagonism); assay type: cell-based; conditions: human PBMC, 0.5 μM ORN R-1362 + 5 μg/ml DOTAP, 16 h, TNF-α ELISA; read-out: IC50 TLR8, Experimental
pIC50: −log10 of the molar value.

- SMI: "CN1CCN(c2ccc(-c3cc(NCCN4CCOCC4)c4ncccc4n3)cc2)CC1"
  TARGET UNDER TEST: "TLR8 (Homo sapiens)"
  pIC50: 6.96

###

target: TLR7 (Homo sapiens); construct: endogenous in cells; host or cells: freshly isolated human PBMC from donor buffy coats; assay: Human PBMC, IFN-α readout using ORN R-1362+DOTAP (TLR7 antagonism); assay type: cell-based; details: human PBMC, 0.5 μM ORN R-1362 + 5 μg/ml DOTAP, 16 h, IFN-α ELISA; read-out: IC50 TLR7, Experimental
OUTCOME MEASURE: IC50 (nM)

- MOLECULE: "CN1CCN(c2ccc(-c3cc(NCCN4CCOCC4)c4ncccc4n3)cc2)CC1 [6 (A3I)]"
  TARGET UNDER TEST: "TLR7 (Homo sapiens)"
  OUTCOME MEASURE: "IC50"
  NUMERIC VALUE: 720

###

target: TLR7 (Homo sapiens, UniProt Q9NYK1); construct: endogenous in cells; host or cells: freshly isolated human PBMC from donor buffy coats; assay: Human PBMC, IFN-α readout using ORN R-1362+DOTAP (TLR7 antagonism); type: cell-based; settings: in vitro testing as described in Example 63; read-out: TLR7 IC50, Experimental
Sequence (Q9NYK1 27-1049): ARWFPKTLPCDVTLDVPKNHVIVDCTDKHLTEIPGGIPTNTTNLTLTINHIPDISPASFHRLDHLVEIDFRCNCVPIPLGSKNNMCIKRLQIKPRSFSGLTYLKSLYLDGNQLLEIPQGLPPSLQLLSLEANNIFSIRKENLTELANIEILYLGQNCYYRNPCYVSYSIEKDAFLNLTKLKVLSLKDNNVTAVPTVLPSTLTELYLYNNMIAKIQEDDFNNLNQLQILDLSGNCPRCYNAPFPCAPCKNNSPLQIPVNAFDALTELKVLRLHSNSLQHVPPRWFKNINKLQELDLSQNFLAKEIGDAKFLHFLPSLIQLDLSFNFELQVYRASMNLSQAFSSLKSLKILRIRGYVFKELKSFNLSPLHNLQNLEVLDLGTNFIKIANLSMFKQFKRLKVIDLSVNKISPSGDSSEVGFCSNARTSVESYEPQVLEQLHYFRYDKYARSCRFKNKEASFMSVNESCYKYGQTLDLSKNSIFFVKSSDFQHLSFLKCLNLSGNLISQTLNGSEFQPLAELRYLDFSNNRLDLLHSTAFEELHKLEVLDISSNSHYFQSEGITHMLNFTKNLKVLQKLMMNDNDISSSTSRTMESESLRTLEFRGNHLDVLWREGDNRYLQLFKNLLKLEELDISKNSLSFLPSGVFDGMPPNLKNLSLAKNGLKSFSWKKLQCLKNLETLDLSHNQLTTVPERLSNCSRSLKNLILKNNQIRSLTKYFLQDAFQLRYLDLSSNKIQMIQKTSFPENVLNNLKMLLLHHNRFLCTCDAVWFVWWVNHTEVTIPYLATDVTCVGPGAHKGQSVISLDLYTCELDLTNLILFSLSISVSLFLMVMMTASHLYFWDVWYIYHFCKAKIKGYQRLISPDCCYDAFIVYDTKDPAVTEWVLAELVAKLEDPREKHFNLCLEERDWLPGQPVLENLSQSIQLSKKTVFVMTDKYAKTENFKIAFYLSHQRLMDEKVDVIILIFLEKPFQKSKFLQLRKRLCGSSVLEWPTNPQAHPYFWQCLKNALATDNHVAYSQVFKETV
pIC50: −log10 of the molar value.

- COMPOUND: "CN1CCN(c2ccc(-c3cc(NCCN4CCOCC4)c4ncccc4n3)cc2)CC1 [6 (CaI)]"
  TARGET UNDER TEST: "TLR7 (Homo sapiens, UniProt Q9NYK1)"
  pIC50: 6.10
- COMPOUND: "CN1CCN(c2ccc3nc(-c4ccccc4)nc(NCCN4CCOCC4)c3c2)CC1 [Compound 8 (Example 72)]"
  TARGET UNDER TEST: "TLR7 (Homo sapiens, UniProt Q9NYK1)"
  pIC50: 7.12
- COMPOUND: "CN1CCN(c2ccc(-c3cc(NCCN4CCOCC4)c4ncccc4n3)cc2)CC1 [6 (BIV)]"
  TARGET UNDER TEST: "TLR7 (Homo sapiens, UniProt Q9NYK1)"
  pIC50: 7.15
- COMPOUND: "CN1CCN(c2cc(NCCN3CCOCC3)c3cc(-c4ccccc4)ccc3n2)CC1"
  TARGET UNDER TEST: "TLR7 (Homo sapiens, UniProt Q9NYK1)"
  pIC50: 6.70
- COMPOUND: "CN1CCN(c2ccc3nc(-c4ccccc4)cc(NCCN4CCOCC4)c3c2)CC1"
  TARGET UNDER TEST: "TLR7 (Homo sapiens, UniProt Q9NYK1)"
  pIC50: 7.12
